- System: Beta-2 adrenergic receptor (Homo sapiens, UniProt P07550)
- Sequence (P07550 whole entry): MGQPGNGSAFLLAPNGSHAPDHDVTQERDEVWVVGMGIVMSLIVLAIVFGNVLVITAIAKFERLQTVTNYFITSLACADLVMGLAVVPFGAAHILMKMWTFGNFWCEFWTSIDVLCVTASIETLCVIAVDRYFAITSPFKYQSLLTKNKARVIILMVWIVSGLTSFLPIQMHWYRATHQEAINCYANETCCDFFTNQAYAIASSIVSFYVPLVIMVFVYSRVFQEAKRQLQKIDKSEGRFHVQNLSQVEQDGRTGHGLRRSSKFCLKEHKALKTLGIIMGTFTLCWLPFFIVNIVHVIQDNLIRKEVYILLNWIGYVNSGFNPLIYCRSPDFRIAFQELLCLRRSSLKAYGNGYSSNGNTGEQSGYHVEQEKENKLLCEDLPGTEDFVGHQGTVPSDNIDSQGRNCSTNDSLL
- Method: Agonist activity at human beta2 adrenergic receptor expressed in HEK293 cells assessed as increase in cAMP accumulation after 60 mins by HTRF assay
- Assay type: functional, cell-based
- Test Parameters: read-out: pEC50 (converted)
Would you kindly list EC50 for each of these compounds?
Record the value in pM, omitting the unit from your answer.

Dear colleague, I am looking for the recorded EC50 of the following compound: O=c1ccc2c(C(O)CNCCCc3ccccc3)ccc(O)c2[nH]1 (stereo not given)
74.1

Which EC50 reading was recorded for the compound O=c1ccc2c(C(O)CNCCCc3ccc4ccccc4c3)ccc(O)c2[nH]1 (stereo not given) ?
9120

Quick one: EC50 of COc1cccc(CCCNCC(O)c2ccc(O)c3[nH]c(=O)ccc23)c1 (stereo not given) ?
40.7

Query (compound): O=c1ccc2c(C(O)CNCCCc3ccccc3O)ccc(O)c2[nH]1 (stereo not given) ; field requested: EC50
49

Field request: EC50 | item: CC(CC(=O)Nc1cccc(CCCNCC(O)c2ccc(O)c3[nH]c(=O)ccc23)c1)CC(C)(C)C (stereo not given)
51.3

Looking for the measured EC50 of COc1ccc(CCCNCC(O)c2ccc(O)c3[nH]c(=O)ccc23)cc1 (stereo not given) , can you help?
74.1

Which value of EC50 has been reported for CC(C)CCC(=O)Nc1cccc(CCCNCC(O)c2ccc(O)c3[nH]c(=O)ccc23)c1 (stereo not given) in the records?
224

So what's the measured EC50 for this one? O=c1ccc2c(C(O)CNCCCc3ccc(O)cc3)ccc(O)c2[nH]1 (stereo not given)
50.1

Please give the measured EC50 for this compound: O=c1ccc2c(C(O)CNCCOc3ccccc3)ccc(O)c2[nH]1 (stereo not given)
162

Would you kindly share the measured EC50 for O=c1ccc2c(C(O)CNCCCCc3ccccc3)ccc(O)c2[nH]1 (stereo not given) ?
151

---

- System: Beta-2 adrenergic receptor (Cavia porcellus)
- Test Parameters: Dunkin-Hartley, Trachea
- Description: Agonist activity at beta2 adrenergic receptor in Dunkin-Hartley guinea pig trachea assessed as reduction in histamine-induced muscle contraction
Please provide measured pD2 for the entries that follow.
Give the value as a plain number.

Returns the measured pD2 for the input compound. Input: O=c1ccc2c(C(O)CNCCCc3cccc(O)c3)ccc(O)c2[nH]1 (centres undefined)
7.85

Any idea what pD2 was measured for COc1ccccc1CCCNCC(O)c1ccc(O)c2[nH]c(=O)ccc12 (centres undefined) ?
6.59

Fill in: pD2 of CC(C)(CCc1ccccc1)NC[C@H](O)c1ccc(O)c2[nH]c(=O)ccc12 is ___
7.02

Need pD2, item COc1cccc(CCCNCC(O)c2ccc(O)c3[nH]c(=O)ccc23)c1 (centres undefined)
5.01

---

- Species on record: Homo sapiens
- Method: Log selectivity ratio (pEC50 difference) of compound effect for agonist activity at human beta2 adrenergic receptor expressed in HEK293 cells to compound effect for agonist activity at human beta1 adrenergic receptor expressed in HEK293 cells
Measured Quantity: log selectivity (β2−β1 pEC50)

So what does the record say about log selectivity (β2−β1 pEC50) for O=c1ccc2c(C(O)CNCCCc3ccccc3O)ccc(O)c2[nH]1 (stereo not given) ?
1.69

Give the measured log selectivity (β2−β1 pEC50) of O=c1ccc2c(C(O)CNCCCc3ccc(O)cc3)ccc(O)c2[nH]1 (stereo not given) .
2.38

Recorded log selectivity (β2−β1 pEC50) for COc1cccc(CCCNCC(O)c2ccc(O)c3[nH]c(=O)ccc23)c1 (stereo not given) , please?
2.16

Query (compound): COc1ccccc1CCCNCC(O)c1ccc(O)c2[nH]c(=O)ccc12 (stereo not given) ; field requested: log selectivity (β2−β1 pEC50)
2.26

Consider the compound O=C(Nc1cccc(CCCNCC(O)c2ccc(O)c3[nH]c(=O)ccc23)c1)c1ccccc1 (stereo not given) and give its measured log selectivity (β2−β1 pEC50).
2.92

Value lookup for log selectivity (β2−β1 pEC50); key = O=c1ccc2c(C(O)CNCCCc3cccc(O)c3)ccc(O)c2[nH]1 (stereo not given)
3.66

Fill in: log selectivity (β2−β1 pEC50) of CC(C)C(=O)Nc1cccc(CCCNCC(O)c2ccc(O)c3[nH]c(=O)ccc23)c1 (stereo not given) is ___
1.65

Record request: log selectivity (β2−β1 pEC50) value, item CC(C)C(=O)Nc1ccc(CCCNCC(O)c2ccc(O)c3[nH]c(=O)ccc23)cc1 (stereo not given)
2.47

Would you kindly share the measured log selectivity (β2−β1 pEC50) for O=c1ccc2c(C(O)CNCCCc3ccccc3)ccc(O)c2[nH]1 (stereo not given) ?
2.12

I have this compound here, CC(C)(CC(c1ccccc1)c1ccccc1)NC[C@H](O)c1ccc(O)c2[nH]c(=O)ccc12 , and I need its recorded log selectivity (β2−β1 pEC50).
1.99

From: ChEMBL document CHEMBL4340501
